- System: Escherichia coli TOP10
- method summary: shrunken log2 fold change of peptide-encoding DNA abundance (4.5 h post-induction vs induction); higher = less antimicrobial activity (less host growth inhibition)
- run parameters: time post-induction: 4.5 h; library: site-saturation at positions 5, 18, 19, 20
measure name: shrunken log2 fold change

Query (sequence): `RRIRWRPPRLPRPRPRPMGCPRP` ; field requested: shrunken log2 fold change
0.117

Moving on to `RRIRDRPPRLPRPRPRPGRLPRP`
0.0513

Moving on to `RRIRTRPPRLPRPRPRPQKDPRP`
-0.455

Moving on to `RRIRIRPPRLPRPRPRPWTVPRP`
-0.15

Moving on to `RRIRSRPPRLPRPRPRPMFLPRP`
-0.595

Moving on to `RRIRDRPPRLPRPRPRPCDFPRP`
0.0384

Moving on to `RRIRRRPPRLPRPRPRPGGYPRP`
-0.0378

Moving on to `RRIRIRPPRLPRPRPRPYIWPRP`
-0.0625

Moving on to `RRIRNRPPRLPRPRPRPHHNPRP`
-0.869

Moving on to `RRIRFRPPRLPRPRPRPSMRPRP`
0.377

Moving on to `RRIRTRPPRLPRPRPRPHIYPRP`
-0.00363

Moving on to `RRIRLRPPRLPRPRPRPTCYPRP`
-0.371

Moving on to `RRIRLRPPRLPRPRPRPQLSPRP`
-0.0956

Moving on to `RRIRTRPPRLPRPRPRPNLQPRP`
-0.0672

Moving on to `RRIRARPPRLPRPRPRPQCIPRP`
-0.125

###

- Test system: Escherichia coli TOP10;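 further: peptides expressed intracellularly from a pBAD plasmid library in pooled LB shake-flask culture, induced with 0.3% L-arabinose, DNA abundance read by NGS, three biological replicates, DESeq2 with apeglm shrinkage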
- method summary: shrunken log2 fold change of peptide-encoding DNA abundance (4.5 h post-induction vs induction); higher = less antimicrobial activity (less host growth inhibition)
- run parameters: time post-induction: 4.5 h; library: site-saturation at positions 5, 18, 19, 20
measure name: shrunken log2 fold change
I'd appreciate a reply containing only the number, no unit.

Query (sequence): `RRIRDRPPRLPRPRPRPGTIPRP` ; field requested: shrunken log2 fold change
-0.485

Moving on to `RRIRIRPPRLPRPRPRPMVQPRP`
-0.0334

Moving on to `RRIRRRPPRLPRPRPRPIGFPRP`
0.0265

Moving on to `RRIRCRPPRLPRPRPRPDATPRP`
1.31

Moving on to `RRIRDRPPRLPRPRPRPFDVPRP`
0.016

Moving on to `RRIRPRPPRLPRPRPRPPSDPRP`
0.128

Moving on to `RRIRMRPPRLPRPRPRPPFDPRP`
0.873

Moving on to `RRIRKRPPRLPRPRPRPQTQPRP`
0.26

Moving on to `RRIRRRPPRLPRPRPRPECFPRP`
0.3

Moving on to `RRIRKRPPRLPRPRPRPVMKPRP`
0.535

Moving on to `RRIRQRPPRLPRPRPRPHMHPRP`
-0.39

Moving on to `RRIRDRPPRLPRPRPRPDNCPRP`
-0.000924

Moving on to `RRIRFRPPRLPRPRPRPKFEPRP`
-0.081

Moving on to `RRIRHRPPRLPRPRPRPLARPRP`
0.113

Moving on to `RRIRTRPPRLPRPRPRPAALPRP`
0.0806
